Data provenance: patent US9617267B2

# ASSAYED_TARGET: UniProtKB P33261
# Sequence (P33261 whole entry): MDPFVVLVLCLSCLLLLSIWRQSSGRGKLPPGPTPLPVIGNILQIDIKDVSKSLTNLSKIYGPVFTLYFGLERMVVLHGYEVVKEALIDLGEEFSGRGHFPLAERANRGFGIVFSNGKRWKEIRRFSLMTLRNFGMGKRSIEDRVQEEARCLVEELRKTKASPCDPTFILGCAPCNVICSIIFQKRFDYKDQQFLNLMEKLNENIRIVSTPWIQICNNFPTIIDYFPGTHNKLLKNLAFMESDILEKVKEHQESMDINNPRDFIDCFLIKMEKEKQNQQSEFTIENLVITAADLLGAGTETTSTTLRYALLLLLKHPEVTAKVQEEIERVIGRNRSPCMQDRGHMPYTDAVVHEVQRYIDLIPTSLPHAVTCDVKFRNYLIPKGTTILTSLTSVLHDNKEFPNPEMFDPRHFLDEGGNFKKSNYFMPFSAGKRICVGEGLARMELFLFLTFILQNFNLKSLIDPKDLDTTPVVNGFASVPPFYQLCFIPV
# ASSAY_OVERVIEW: CYP enzyme inhibition, fluorescent substrate (CEC)
pIC50: −log10 of the molar value.

CPD_SMILES | pIC50
O=C(c1c(F)ccc(NS(=O)(=O)c2ccc(C(F)(F)F)cc2)c1F)c1c[nH]c2ncnc(NC3CCCC3)c12 | 5.00 to 5.30
CCCS(=O)(=O)Nc1ccc(F)c(C(=O)c2c[nH]c3ncc(OC)c(Cl)c23)c1F | > 5.30
CCCS(=O)(=O)Nc1ccc(F)c(C(=O)c2c[nH]c3ncc(C#N)c(OC)c23)c1F | < 5.00
CCCc1ccc(S(=O)(=O)Nc2ccc(F)c(C(=O)c3c[nH]c4ncnc(OC)c34)c2F)cc1 | 5.00 to 5.30
CCCS(=O)(=O)Nc1ccc(F)c(C(=O)c2c[nH]c3ncc(C#N)c(Cl)c23)c1F | < 5.00
CCCS(=O)(=O)Nc1ccc(F)c(C(=O)c2c[nH]c3ncc(C)c(Cl)c23)c1F | 5.00 to 5.30
CCNc1ncnc2[nH]cc(C(=O)c3c(F)ccc(NS(=O)(=O)c4ccc(C(F)(F)F)cc4)c3F)c12 | 5.00 to 5.30
Cc1c(Cl)cnc2[nH]cc(C(=O)c3c(F)ccc(NS(=O)(=O)c4ccc(C(F)(F)F)cc4)c3F)c12 | > 5.30
CCCS(=O)(=O)Nc1ccc(F)c(C(=O)c2c[nH]c3ncc(Cl)c(C)c23)c1F | 5.00 to 5.30
O=C(c1c(F)ccc(NS(=O)(=O)c2ccc(C(F)(F)F)cc2)c1F)c1c[nH]c2ncnc(NC3CC3)c12 | 5.00 to 5.30
N#Cc1c(Cl)cnc2[nH]cc(C(=O)c3c(F)ccc(NS(=O)(=O)c4ccc(C(F)(F)F)cc4)c3F)c12 | < 5.00
O=C(c1c(F)ccc(NS(=O)(=O)c2ccc(C(F)(F)F)cc2)c1F)c1c[nH]c2ncnc(OCC3CC3)c12 | 5.00 to 5.30
CCCNc1ncnc2[nH]cc(C(=O)c3c(F)ccc(NS(=O)(=O)c4ccc(C(F)(F)F)cc4)c3F)c12 | 5.00 to 5.30
CCn1cc(Nc2ncnc3[nH]cc(C(=O)c4c(F)ccc(NS(=O)(=O)c5ccc(C(F)(F)F)cc5)c4F)c23)cn1 | 5.00 to 5.30
CCCS(=O)(=O)Nc1ccc(F)c(C(=O)c2c[nH]c3ncnc(OCC)c23)c1F | < 5.00
CCCS(=O)(=O)Nc1ccc(F)c(C(=O)c2c[nH]c3ncc(Cl)c(C#N)c23)c1F | < 5.00

----------
# ASSAYED_TARGET: CYP2C9 (Homo sapiens (Human), UniProt P11712)
# Sequence (P11712 whole entry): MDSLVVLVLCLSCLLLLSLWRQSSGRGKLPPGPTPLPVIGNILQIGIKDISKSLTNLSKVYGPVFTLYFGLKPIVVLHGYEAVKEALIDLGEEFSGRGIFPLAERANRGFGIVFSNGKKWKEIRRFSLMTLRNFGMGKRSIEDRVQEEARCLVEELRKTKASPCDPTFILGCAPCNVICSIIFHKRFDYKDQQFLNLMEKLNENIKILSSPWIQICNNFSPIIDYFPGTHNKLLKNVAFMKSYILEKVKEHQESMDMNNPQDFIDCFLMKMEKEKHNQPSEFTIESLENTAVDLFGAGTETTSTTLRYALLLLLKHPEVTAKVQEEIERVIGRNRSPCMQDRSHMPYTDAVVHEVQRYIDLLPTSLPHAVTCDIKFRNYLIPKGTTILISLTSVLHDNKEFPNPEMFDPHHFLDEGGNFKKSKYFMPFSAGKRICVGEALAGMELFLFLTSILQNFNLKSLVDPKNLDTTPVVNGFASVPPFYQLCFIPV
# ASSAY_OVERVIEW: CYP enzyme inhibition, fluorescent substrate (MFC)
# MEASUREMENT_PARAMETERS: human, CYP2C9 enzyme (BD Biosciences), probe MFC
VALUE_TYPE: IC50 at 45 min

CPD_SMILES | READOUT_VALUE
CCCS(=O)(=O)Nc1ccc(F)c(C(=O)c2c[nH]c3nccc(NC4CCCC4)c23)c1F | > 10 µM

----------
Quick reference for Biochemical activity ratio B/C among some compounds
# System: B-Raf
# ASSAY_OVERVIEW: B-Raf kinase activity biochemical assay (AlphaScreen, biotin-MEK1 phosphorylation)
# MEASUREMENT_PARAMETERS: ratio of IC50 B-Raf / c-Raf-1
VALUE_TYPE: Biochemical activity ratio B/C

CPD_SMILES | VALUE_TYPE | READOUT_VALUE
Cc1cc(C)cc(S(=O)(=O)Nc2ccc(F)c(C(=O)c3c[nH]c4ncnc(NC(C)C)c34)c2F)c1 | Biochemical activity ratio B/C | >10
CCc1ccc(S(=O)(=O)Nc2ccc(F)c(C(=O)c3c[nH]c4ncnc(OC)c34)c2F)cc1 | Biochemical activity ratio B/C | 0.1-10
CC(C)Nc1ncnc2[nH]cc(C(=O)c3c(F)ccc(NS(=O)(=O)c4ccc(C(C)C)cc4)c3F)c12 | Biochemical activity ratio B/C | >10
COc1ncnc2[nH]cc(C(=O)c3c(F)ccc(NS(=O)(=O)c4cc(C)cc(C)c4)c3F)c12 | Biochemical activity ratio B/C | >10
CCCc1ccc(S(=O)(=O)Nc2ccc(F)c(C(=O)c3c[nH]c4ncnc(OC)c34)c2F)cc1 | Biochemical activity ratio B/C | 0.1-10
O=C(c1c(F)ccc(NS(=O)(=O)c2ccccc2)c1F)c1c[nH]c2nccc(C(F)(F)F)c12 | Biochemical activity ratio B/C | >10
CCCc1ccc(S(=O)(=O)Nc2ccc(F)c(C(=O)c3c[nH]c4ncnc(NC(C)C)c34)c2F)cc1 | Biochemical activity ratio B/C | 0.1-10
CC(C)COc1ncnc2[nH]cc(C(=O)c3c(F)ccc(NS(=O)(=O)c4ccc(C(F)(F)F)cc4)c3F)c12 | Biochemical activity ratio B/C | >10
COc1ncnc2[nH]cc(C(=O)c3c(F)ccc(NS(=O)(=O)CC(C)C)c3F)c12 | Biochemical activity ratio B/C | >10
COc1ccc(S(=O)(=O)Nc2ccc(F)c(C(=O)c3c[nH]c4ncnc(OC)c34)c2F)cn1 | Biochemical activity ratio B/C | >10
CCCc1ccc(S(=O)(=O)Nc2ccc(F)c(C(=O)c3c[nH]c4ncnc(NC5COC5)c34)c2F)cc1 | Biochemical activity ratio B/C | >10
N#Cc1c(Cl)cnc2[nH]cc(C(=O)c3c(F)ccc(NS(=O)(=O)c4ccc(C(F)(F)F)cc4)c3F)c12 | Biochemical activity ratio B/C | >10
Cc1c(Cl)cnc2[nH]cc(C(=O)c3c(F)ccc(NS(=O)(=O)c4ccc(C(F)(F)F)cc4)c3F)c12 | Biochemical activity ratio B/C | 0.1-10
O=C(c1c(F)ccc(NS(=O)(=O)c2ccc(C(F)(F)F)cc2)c1F)c1c[nH]c2ncnc(NC3CCCC3)c12 | Biochemical activity ratio B/C | >10
O=C(c1c(F)ccc(NS(=O)(=O)c2ccc(C(F)(F)F)cc2)c1F)c1c[nH]c2ncnc(Nc3ccccc3)c12 | Biochemical activity ratio B/C | >10
Cc1ncnc2[nH]cc(C(=O)c3c(F)ccc(NS(=O)(=O)c4ccc(C(F)(F)F)cc4)c3F)c12 | Biochemical activity ratio B/C | 0.1-10

----------
# ASSAYED_TARGET: B-Raf (Homo sapiens (Human))
# Sequence (P15056 whole entry): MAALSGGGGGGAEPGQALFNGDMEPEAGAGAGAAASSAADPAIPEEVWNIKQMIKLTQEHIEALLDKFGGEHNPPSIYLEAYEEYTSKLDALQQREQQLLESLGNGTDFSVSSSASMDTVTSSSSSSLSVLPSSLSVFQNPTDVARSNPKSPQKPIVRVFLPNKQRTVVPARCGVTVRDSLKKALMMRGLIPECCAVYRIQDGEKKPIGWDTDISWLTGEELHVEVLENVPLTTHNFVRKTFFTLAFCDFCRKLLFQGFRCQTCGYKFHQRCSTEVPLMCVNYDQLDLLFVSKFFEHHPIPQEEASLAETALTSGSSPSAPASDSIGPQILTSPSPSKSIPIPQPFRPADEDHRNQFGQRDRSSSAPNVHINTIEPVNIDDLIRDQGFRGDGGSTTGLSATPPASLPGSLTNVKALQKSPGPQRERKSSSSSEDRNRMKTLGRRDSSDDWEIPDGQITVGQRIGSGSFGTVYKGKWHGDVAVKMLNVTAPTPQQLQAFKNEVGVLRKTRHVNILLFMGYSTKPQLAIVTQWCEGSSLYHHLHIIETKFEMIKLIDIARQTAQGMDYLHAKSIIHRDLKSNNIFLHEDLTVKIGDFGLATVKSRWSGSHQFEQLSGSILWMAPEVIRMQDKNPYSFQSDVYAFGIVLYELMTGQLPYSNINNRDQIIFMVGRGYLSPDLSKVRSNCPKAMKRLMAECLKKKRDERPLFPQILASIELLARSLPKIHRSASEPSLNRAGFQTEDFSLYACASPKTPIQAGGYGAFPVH
# ASSAY_OVERVIEW: B-Raf kinase activity biochemical assay (AlphaScreen, biotin-MEK1 phosphorylation)
# MEASUREMENT_PARAMETERS: B-Raf

COMPOUND | IC50
CCCc1ccc(S(=O)(=O)Nc2ccc(F)c(C(=O)c3c[nH]c4ncnc(Cl)c34)c2F)cc1 [P-1034] | > 0.1 µM
O=C(c1c(F)ccc(NS(=O)(=O)c2ccc(C(F)(F)F)cc2)c1F)c1c[nH]c2ncnc(O)c12 [P-1012] | > 0.1 µM
CC(C)Nc1ncnc2[nH]cc(C(=O)c3c(F)ccc(NS(=O)(=O)c4ccc(C(C)C)cc4)c3F)c12 [P-1044] | < 0.1 µM
CCCS(=O)(=O)Nc1ccc(F)c(C(=O)c2c[nH]c3ncc(C#N)c(OC)c23)c1F [P-2005] | < 0.1 µM
O=C(c1c(F)ccc(NS(=O)(=O)c2ccc(C(F)(F)F)cc2)c1F)c1c[nH]c2ncnc(NCC3CC3)c12 [P-1052] | < 0.1 µM
O=C(c1c(F)ccc(NS(=O)(=O)c2ccc(C(F)(F)F)cc2)c1F)c1c[nH]c2ncnc(OCC3CC3)c12 [P-1053] | < 0.1 µM
CCCc1ccc(S(=O)(=O)Nc2ccc(F)c(C(=O)c3c[nH]c4ncnc(C)c34)c2F)cc1 [P-1007] | < 0.1 µM
N#Cc1c(F)cnc2[nH]cc(C(=O)c3c(F)ccc(NS(=O)(=O)c4ccc(C(F)(F)F)cc4)c3F)c12 [P-2009] | < 0.1 µM

----------
Quick reference for IC50 among some compounds
# ASSAYED_TARGET: CYP3A4(BQ) (Homo sapiens (Human), UniProt P08684)
# Sequence (P08684 whole entry): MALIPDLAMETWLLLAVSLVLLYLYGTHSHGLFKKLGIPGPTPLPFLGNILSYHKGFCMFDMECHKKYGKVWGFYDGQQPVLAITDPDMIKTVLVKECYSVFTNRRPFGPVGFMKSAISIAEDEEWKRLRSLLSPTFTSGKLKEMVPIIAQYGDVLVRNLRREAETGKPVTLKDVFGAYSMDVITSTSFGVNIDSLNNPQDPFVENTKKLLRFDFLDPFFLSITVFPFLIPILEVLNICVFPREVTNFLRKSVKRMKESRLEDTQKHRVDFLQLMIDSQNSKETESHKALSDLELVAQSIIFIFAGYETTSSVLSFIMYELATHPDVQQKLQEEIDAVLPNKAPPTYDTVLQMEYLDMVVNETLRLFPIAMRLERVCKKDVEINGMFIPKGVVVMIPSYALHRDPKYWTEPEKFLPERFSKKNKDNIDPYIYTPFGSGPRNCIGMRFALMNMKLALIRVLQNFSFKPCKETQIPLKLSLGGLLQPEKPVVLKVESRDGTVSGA
# ASSAY_OVERVIEW: CYP enzyme inhibition, fluorescent substrate BQ

CPD_SMILES | IC50
CCCS(=O)(=O)Nc1ccc(F)c(C(=O)c2c[nH]c3ncc(Cl)c(OC)c23)c1F | > 10 µM
CCCS(=O)(=O)Nc1ccc(F)c(C(=O)c2c[nH]c3ncnc(Nc4cccnc4)c23)c1F | 5 to 10 µM
CCCc1ccc(S(=O)(=O)Nc2ccc(F)c(C(=O)c3c[nH]c4ncnc(C)c34)c2F)cc1 | 5 to 10 µM
N#Cc1c(Cl)cnc2[nH]cc(C(=O)c3c(F)ccc(NS(=O)(=O)c4ccc(C(F)(F)F)cc4)c3F)c12 | > 10 µM
CCCS(=O)(=O)Nc1ccc(F)c(C(=O)c2c[nH]c3ncc(OC)c(Cl)c23)c1F | 5 to 10 µM
CCCS(=O)(=O)Nc1ccc(F)c(C(=O)c2c[nH]c3nccc(NC4CCCC4)c23)c1F | > 10 µM
N#Cc1c(F)cnc2[nH]cc(C(=O)c3c(F)ccc(NS(=O)(=O)c4ccc(C(F)(F)F)cc4)c3F)c12 | > 10 µM
CCCS(=O)(=O)Nc1ccc(F)c(C(=O)c2c[nH]c3ncc(C#N)c(Cl)c23)c1F | > 10 µM
